Tested on: 186277-243-T-J2-PDC complex spheroid viability;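 also: 7 day exposure to compounds; 100% = DMSO vehicle control viability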
assay_details: Anticancer human tumor 186277-243-T-J2-PDC patient-derived colon adenocarcinoma cell line growth inhibition
test_context: second compound 10 µM; first compound 0.00316 µM; hits give low values
So I've got a bunch of compounds here, and I need their viability, T/C values.

Sample answers from the record:
CC1COCCN1c1cc(-c2ccnn2C)c2ccnc(-c3ccn[nH]3)c2n1 (centres undefined) + NC1CCC(NC2CC2c2ccccc2)CC1: 71.8%
CC(C)CC(NC(=O)CNC(=O)c1cc(Cl)ccc1Cl)B1OC(=O)CC(CC(=O)O)(C(=O)O)O1 (centres undefined) + NC1CCC(NC2CC2c2ccccc2)CC1: 111%
O=C(C=Cn1cnc(-c2cc(C(F)(F)F)cc(C(F)(F)F)c2)n1)NNc1cnccn1 + NC1CCC(NC2CC2c2ccccc2)CC1: 131%
COc1cc(Nc2ncc3c(n2)-c2ccc(Cl)cc2C(c2c(F)cccc2OC)=NC3)ccc1C(=O)O + NC1CC1c1ccc(-c2cccc(O)c2)cc1: 137%
CC1COCCN1c1cc(-c2ccnn2C)c2ccnc(-c3ccn[nH]3)c2n1 (centres undefined) + NC1CC1c1ccc(-c2cccc(O)c2)cc1: 18%
CC(C)CC(NC(=O)CNC(=O)c1cc(Cl)ccc1Cl)B1OC(=O)CC(CC(=O)O)(C(=O)O)O1 (centres undefined) + NC1CC1c1ccc(-c2cccc(O)c2)cc1: 100%
Nc1ncn(C2CC(O)C(CO)O2)c(=O)n1 (centres undefined) + NC1CC1c1ccc(-c2cccc(O)c2)cc1: 110%
COc1cc(Nc2ncc3c(n2)-c2ccc(Cl)cc2C(c2c(F)cccc2OC)=NC3)ccc1C(=O)O + NC1CCC(NC2CC2c2ccccc2)CC1: 128%

Please examine the following record next.
## Task Input CC[C@@]1(O)C(=O)OCc2c1cc1n(c2=O)Cc2cc3c(CN(C)C)c(O)ccc3nc2-1 + NC1CCC(NC2CC2c2ccccc2)CC1 , output reported viability, T/C.
## Result 140%
